measurement_notes: Cmax of aliskiren hemifumarate following 2 week oral dosing of aliskiren hemifumarate at 10 mg.Kg-1 level studied on […] in male Callithrix jacchus
Type: ADME, organism-based
condition_description: marmoset, plasma
endpoint_name: Cmax
Reply with the number, then its unit.

Challenge: Endpoint output: Cmax of COCCCOc1cc(C[C@@H](C[C@H](N)[C@@H](O)C[C@H](C(=O)NCC(C)(C)C(N)=O)C(C)C)C(C)C)ccc1OC.COCCCOc1cc(C[C@@H](C[C@H](N)[C@@H](O)C[C@H](C(=O)NCC(C)(C)C(N)=O)C(C)C)C(C)C)ccc1OC.O=C(O)/C=C/C(=O)O [ALISKIREN FUMARATE] . Value?
Response given: 5770 ng/mL

---

measurement_notes: AUC infinity of aliskiren hemifumarate following 2 week oral dosing of aliskiren hemifumarate at 50 mg.Kg-1 level studied on day 1 in male Callithrix jacchus
Format: ADME, organism-based
condition_description: marmoset, plasma, read-out: AUC infinity
endpoint_name: AUC(0-inf) (ng·h/mL)
Provide only the numeric value, understood in ng·h/mL.

Challenge: Endpoint output: AUC(0-inf) of COCCCOc1cc(C[C@@H](C[C@H](N)[C@@H](O)C[C@H](C(=O)NCC(C)(C)C(N)=O)C(C)C)C(C)C)ccc1OC.COCCCOc1cc(C[C@@H](C[C@H](N)[C@@H](O)C[C@H](C(=O)NCC(C)(C)C(N)=O)C(C)C)C(C)C)ccc1OC.O=C(O)/C=C/C(=O)O [ALISKIREN FUMARATE] . Value?
Response given: 64000

---

measurement_notes: Apparent Km value of metabolism of [14C] aliskiren hemifumarate studied in human liver microsome
Type: ADME
condition_description: microsomes
endpoint_name: Km (µM)
Provide only the numeric value, understood in µM.

Challenge: Endpoint output: Km of `COCCCOc1cc(C[C@@H](C[C@H](N)[C@@H](O)C[C@H](C(=O)NCC([14CH3])([14CH3])C(N)=O)C(C)C)C(C)C)ccc1OC.O=C(O)/C=C/C(=O)O` . Value?
Response given: 43.8

---

measurement_notes: AUC (0-96h) of unlabeled aliskiren hemifumarate following oral administration of aliskiren hemifumarate at 100 mg.Kg-1 level in rat
Type: ADME, organism-based
condition_description: Albino HAN:WIST, plasma
endpoint_name: AUC(0-t) at 96 h (µM·h)
Provide only the numeric value, understood in µM·h.

Challenge: Endpoint output: AUC(0-t) at 96 h of COCCCOc1cc(C[C@@H](C[C@H](N)[C@@H](O)C[C@H](C(=O)NCC(C)(C)C(N)=O)C(C)C)C(C)C)ccc1OC.COCCCOc1cc(C[C@@H](C[C@H](N)[C@@H](O)C[C@H](C(=O)NCC(C)(C)C(N)=O)C(C)C)C(C)C)ccc1OC.O=C(O)/C=C/C(=O)O [ALISKIREN FUMARATE] . Value?
Response given: 3.01

---

measurement_notes: Cmax of [14C] aliskiren hemifumarate following single oral dose of [14C] aliskiren hemifumarate at 500 mg.Kg-1 level in mouse
Assay type: ADME, organism-based, TgRasH2, Plasma
condition_description: in vivo
endpoint_name: Cmax (nM)
Provide only the numeric value, understood in nM.

Challenge: Endpoint output: Cmax of `COCCCOc1cc(C[C@@H](C[C@H](N)[C@@H](O)C[C@H](C(=O)NCC([14CH3])([14CH3])C(N)=O)C(C)C)C(C)C)ccc1OC.O=C(O)/C=C/C(=O)O` . Value?
Response given: 2170
